Where do these numbers come from? They come from ChEMBL document CHEMBL3433997.

- Target system: Glucose transporter (Leishmania mexicana) (UniProt O61059)
- Assay: ST_JUDE_LEISH: Cytotoxicity at 2uM final concentration against transgenic Leishmania Mexicana promastigotes LmGT2 that are glucose transport deficient and complemented with the L. Mexicana glucose transporter 2. Activity is measured by DNA content using SYBR green in vitro
- Assay type: functional
Readout label: inhibition (%)
Unit % implied. Number only.

Compound	Target system	Recorded result
CN(C)CC(=O)Nc1cccc(Nc2nccc(NCC(O)c3ccccc3)n2)c1 (stereo unspecified)	Glucose transporter (Leishmania mexicana) (UniProt O61059)	-0.94
COc1ccc(NS(=O)(=O)c2cccc(C(=O)Nc3ccc(C(F)(F)F)cc3)c2)cc1N1CCN(CC(C)C)CC1	Glucose transporter (Leishmania mexicana) (UniProt O61059)	6.21
COc1ccc2nc(C)cc(NCc3ccc4ccccc4c3)c2c1	Glucose transporter (Leishmania mexicana) (UniProt O61059)	5.11

Short answer for "c1ccc(OCCCCN2CCCCC2)cc1" : inhibition was -4.15

Noted for "CCCCC(=O)Nc1ccc(Nc2nc(C)cc(N3CCCC3)n2)cc1" : its inhibition reads 3.88

inhibition in this record for "CN=C(NC)c1cccc(NC(=O)C=Cc2ccc(C=CC(=O)Nc3cccc(C(=NC)NC)c3)cc2)c1" : -0.11
